From: patent US8013006B2

System: HCV replicon
Method Description: microbe, parasite or virus in culture
Format: cell-based
Experimental Context: Replicon IC50 values are determined by firefly luciferase signal; bicistronic replicon, 2 days; read-out: Replicon IC5Os
Quantity Kind: IC50

C=CCOC(=O)Nc1cccc(-c2c(C#N)c3ccc(OC(C)C)cc3n2CC)c1 [Compound 596]    500 to 2000 nM

List reported IC50 for each of these compounds:
1. CCn1c(C#Cc2ccc(OC)cc2)c(C#N)c2cc(OC)ccc21 [Compound 177]
2. CCn1c(-c2ccc(C(=O)N3CCC3)cc2)c(C#N)c2ccc(OC)cc21 [Compound 387]

1: 500 to 2000 nM; 2: > 2000 nM

List reported IC50 for each of these compounds:
1. CCCOC(=O)Nc1cccc(-c2c(C#N)c3cc(-c4cccc(OC)c4)ccc3n2CC)c1 [Compound 486]
2. CCn1c(-c2cccc(NC(=O)OC3CCOC3)c2)c(C#N)c2ccc(OC)cc21 (centres unmarked) [Compound 502]
3. CCn1c(-c2ccc(C(=O)N3CCCC3)cc2)c(C#N)c2cc(OC)ccc21 [Compound 246]
4. CCn1cc(C(=O)c2cccc(OC)c2)c2cc(OC)ccc21 [Compound 39]

500 to 2000 nM
> 2000 nM
> 2000 nM
> 2000 nM

List reported IC50 for each of these compounds:
1. CCn1c(C#Cc2ccc(NC(=O)C(C)C)cc2)c(C#N)c2ccc(OC)cc21 [Compound 152]
2. CCn1c(-c2ccc(NC(=O)OCCOC)cc2)c(C#N)c2ccc(OC)cc21 [Compound 313]
3. CCS(=O)(=O)N(C)c1ccc(-c2c(C#N)c3ccc(OC)cc3n2C(C)C)cc1 [Compound 684]
4. COc1ccc(-c2c[nH]c3ccc([N+](=O)O)cc23)cc1 [Compound 40]

1. > 2000 nM
2. > 2000 nM
3. > 2000 nM
4. > 2000 nM

----------
Field: IC50. Provide a value for each of the compounds that follow.
Test system: HCV replicon
Method Description: microbe, parasite or virus in culture
Assay type: cell-based
Experimental Context: Hepatitis C virus, 48 h, read-out: Replicon IC5Os μM

Sample answers from the record:
CCn1c(C#Cc2cccc(OC)c2)c(C#N)c2ccc(C(N)=O)cc21    0.5 to 2 µM
CCn1c(C#Cc2ccccc2)c(C#N)c2ccc(C(N)=O)cc21    0.5 to 2 µM
CCn1c(-c2ccc(NC(=O)C(C)C)cc2)c(C#N)c2cc(OC)ccc21    < 0.5 µM
CCn1c(-c2ccc(NC(=O)C3CCC3)cc2)c(C#N)c2cc(OC)ccc21    0.5 to 2 µM

With those in mind, consider the next compound.
Jot down IC50 (HCV replicon) of CCn1c(C#Cc2ccc(O)cc2)c(C#N)c2ccc(OC)cc21 .
0.5 to 2 µM

----------
Field: IC50. Provide a value for each of the compounds that follow.
Test system: HCV replicon
Method Description: microbe, parasite or virus in culture
Assay type: cell-based
Experimental Context: Hepatitis C virus, 48 h, read-out: Replicon IC5Os μM

Sample answers from the record:
CCn1c(C#Cc2cccc(NC(=O)COC)c2)c(C#N)c2ccc(OC)cc21 [Compound 219]    0.5 to 2 µM
CC(=O)OCc1c(OC(C)=O)ccc2c([N+](=O)[O-])c(C)n(-c3ccc(C)cc3)c12 [Compound 1]    > 2 µM
CCCn1c(-c2ccc(NS(=O)(=O)CC)cc2)c(C#N)c2ccc(OC)cc21 [Compound 85]    < 0.5 µM

With those in mind, consider the next compound.
Jot down IC50 (HCV replicon) of COc1ccc(-n2cc(C(C)=O)c3ccc(OC)cc32)cc1 [Compound 48] .
0.5 to 2 µM
